Target: Platelet-derived growth factor receptor beta (Homo sapiens, UniProt P09619)
Sequence (P09619 whole entry): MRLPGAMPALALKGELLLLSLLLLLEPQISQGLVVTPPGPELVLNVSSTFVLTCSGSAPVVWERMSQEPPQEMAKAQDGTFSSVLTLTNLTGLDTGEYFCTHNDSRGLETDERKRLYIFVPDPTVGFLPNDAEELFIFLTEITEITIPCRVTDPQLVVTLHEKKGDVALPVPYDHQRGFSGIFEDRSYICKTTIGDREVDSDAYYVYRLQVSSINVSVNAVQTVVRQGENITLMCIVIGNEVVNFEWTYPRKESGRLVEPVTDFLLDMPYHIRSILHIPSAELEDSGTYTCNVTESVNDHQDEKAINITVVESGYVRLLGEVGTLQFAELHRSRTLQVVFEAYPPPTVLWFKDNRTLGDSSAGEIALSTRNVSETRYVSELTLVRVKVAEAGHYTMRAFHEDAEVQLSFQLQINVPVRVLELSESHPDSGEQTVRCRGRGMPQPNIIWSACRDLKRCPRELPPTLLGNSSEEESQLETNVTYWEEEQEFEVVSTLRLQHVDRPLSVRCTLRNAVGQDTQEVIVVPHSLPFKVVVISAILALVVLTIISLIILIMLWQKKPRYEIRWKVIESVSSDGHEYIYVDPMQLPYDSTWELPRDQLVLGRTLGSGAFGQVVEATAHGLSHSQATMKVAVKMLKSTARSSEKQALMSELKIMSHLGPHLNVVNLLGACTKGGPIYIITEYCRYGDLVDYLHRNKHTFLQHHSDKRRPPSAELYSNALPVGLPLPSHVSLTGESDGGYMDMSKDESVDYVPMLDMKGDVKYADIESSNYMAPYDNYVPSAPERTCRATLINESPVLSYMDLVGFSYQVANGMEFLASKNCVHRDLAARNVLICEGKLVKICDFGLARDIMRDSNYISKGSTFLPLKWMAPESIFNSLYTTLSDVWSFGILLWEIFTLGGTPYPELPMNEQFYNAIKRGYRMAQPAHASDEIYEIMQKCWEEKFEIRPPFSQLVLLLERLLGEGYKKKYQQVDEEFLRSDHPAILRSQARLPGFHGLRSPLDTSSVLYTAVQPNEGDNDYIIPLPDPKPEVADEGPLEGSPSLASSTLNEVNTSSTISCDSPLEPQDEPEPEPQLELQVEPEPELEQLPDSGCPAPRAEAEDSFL
Assay: Inhibition of human PDGFRbeta using biotin labeled substrate after 1 hr by HTFR assay
assayReadout: IC50

- smilesRepresentation: "Nc1onc2nc(-c3ccccc3)cc(-c3ccc(NC(=O)Nc4ccccc4F)cc3)c12"
  result: "Not Active"
- smilesRepresentation: "C=CC(=O)Nc1ccc(NC(=O)Nc2ccc(-c3cc(-c4ccccc4)nc4noc(N)c34)cc2)cc1"
  result: "Not Active"
- smilesRepresentation: "COc1ccc(NC(=O)Nc2ccc(-c3cc(-c4ccccc4)nc4noc(N)c34)cc2)cc1"
  result: "Not Active"
- smilesRepresentation: "C/C=C\\C(=O)Nc1ccc(NC(=O)Nc2ccc(-c3cc(C)nc4noc(N)c34)cc2)cc1"
  result: "Not Active"
- smilesRepresentation: "C/C=C\\C(=O)Nc1ccc(NC(=O)Nc2ccc(-c3cc(C)nc4noc(N)c34)cc2)cc1C"
  result: "Not Active"

----------
System: HUVEC
Experiment: Antiproliferative activity against HUVEC after 72 hrs by cell titer glo-based fluorescence assay
Details: Homo sapiens
pIC50: −log10 of the molar value.

- smilesRepresentation: "Cc1cc(-c2ccc(NC(=O)Nc3cccc(C(F)(F)F)c3)cc2)c2c(N)onc2n1"
  pIC50: 5.10
- smilesRepresentation: "Cc1cccc(NC(=O)Nc2ccc(-c3cc(C)nc4noc(N)c34)cc2)c1"
  pIC50: 4.93
- smilesRepresentation: "Cc1ccc(F)c(NC(=O)Nc2ccc(-c3cccc4[nH]nc(N)c34)cc2)c1"
  pIC50: 4.40
- smilesRepresentation: "Cc1cc(-c2ccc(NC(=O)Nc3cccc(Cl)c3)cc2)c2c(N)onc2n1"
  pIC50: 4.82
- smilesRepresentation: "Cc1cc(-c2ccc(NC(=O)Nc3ccc(Cl)c(C(F)(F)F)c3)cc2)c2c(N)onc2n1"
  pIC50: 4.90

----------
Molecular target: Platelet-derived growth factor receptor beta (Homo sapiens, UniProt P09619)
Assay: Inhibition of human PDGFRbeta using biotin labeled substrate after 1 hr by HTFR assay
Settings: read-out: IC50
pIC50: −log10 of the molar value.
Reported pIC50 values for a set of compounds

- smilesRepresentation: "Nc1onc2nc(-c3ccccc3)cc(-c3ccc(NC(=O)Nc4ccc(Cl)c(C(F)(F)F)c4)cc3)c12"
  pIC50: 6.54
- smilesRepresentation: "Cc1cc(-c2ccc(NC(=O)Nc3cccc(Cl)c3)cc2)c2c(N)onc2n1"
  pIC50: 7.40
- smilesRepresentation: "Nc1onc2nc(-c3ccccc3)cc(-c3ccc(NC(=O)Nc4cccc(F)c4)cc3)c12"
  pIC50: 5.49
- smilesRepresentation: "Cc1ccc(NC(=O)Nc2ccc(-c3cc(-c4ccccc4)nc4noc(N)c34)cc2)cc1"
  pIC50: 5.90

----------
Target: Platelet-derived growth factor receptor beta (Homo sapiens, UniProt P09619)
Assay: Inhibition of human PDGFRbeta using biotin labeled substrate after 1 hr by HTFR assay
Details: read-out: IC50

- smilesRepresentation: "Cc1cccc(NC(=O)Nc2ccc(-c3cc(-c4ccccc4)nc4noc(N)c34)cc2)c1"
  IC50: "1230 nM"
- smilesRepresentation: "Cc1cc(-c2ccc(NC(=O)Nc3ccccc3Cl)cc2)c2c(N)onc2n1"
  IC50: "820 nM"
- smilesRepresentation: "Nc1onc2nc(-c3ccccc3)cc(-c3ccc(NC(=O)Nc4ccccc4)cc3)c12"
  IC50: "3520 nM"
- smilesRepresentation: "Nc1onc2nc(-c3ccccc3)cc(-c3ccc(NC(=O)Nc4cccc(Cl)c4)cc3)c12"
  IC50: "2230 nM"
- smilesRepresentation: "Cc1cccc(NC(=O)Nc2ccc(-c3cc(C)nc4noc(N)c34)cc2)c1"
  IC50: "8 nM"
- smilesRepresentation: "Cc1cc(-c2ccc(NC(=O)Nc3cccc(C(F)(F)F)c3)cc2)c2c(N)onc2n1"
  IC50: "20 nM"
- smilesRepresentation: "Cc1cc(-c2ccc(NC(=O)Nc3ccc(Cl)c(C(F)(F)F)c3)cc2)c2c(N)onc2n1"
  IC50: "20 nM"
- smilesRepresentation: "Nc1onc2nc(-c3ccccc3)cc(-c3ccc(NC(=O)Nc4ccc(F)cc4)cc3)c12"
  IC50: "3780 nM"
- smilesRepresentation: "C=C(CN1CCOCC1)C(=O)Nc1ccc(NC(=O)Nc2ccc(-c3cc(C)nc4noc(N)c34)cc2)cc1C"
  IC50: "510 nM"
